This collection of values is drawn from patent US10442866.

System tested: T1, recombinant rhesus OX40-his (Sino Biological, Cat#:90846-C08H) (rhesus monkey, UniProt P43489 29-214 (human entry))
T1 construct: bought protein; also called monkey OX40-his; rhOX40-his; not shown: His tag
T1 chain: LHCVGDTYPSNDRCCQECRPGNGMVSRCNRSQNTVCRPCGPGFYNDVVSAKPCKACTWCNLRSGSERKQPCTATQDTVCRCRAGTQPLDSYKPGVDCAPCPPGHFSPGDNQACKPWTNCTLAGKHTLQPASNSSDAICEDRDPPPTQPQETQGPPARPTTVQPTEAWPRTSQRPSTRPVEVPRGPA
Test description: ELISA on coated rhesus OX40-His, OD450

Binder	binding result
68C8-VH2VL3 (antibody, human IgG1, kappa, V domains shown, humanized; also called 68C8-H2L3; 68C8H2L3) VH: QVQLVQSGAEVKKPGASVKVSCKVSGDTFTSYWITWVRQRPGKGLEWMGDIHPGSGSTNNNEKFKNRVTMTVDTSTDTAYMELSSLRSEDTAVYYCATLRPYYFVYWGQGTLVTVSS VL: DIQMTQSPSSLSASVGDRVTITCRASQDISNYLNWYQQKPGKTVKLLIYYTSRLLSGVPSRFSGSGSGTDYTLTISSLQPEDFATYFCQQGNTLPLTFGQGTRLEIKR	binds
